test: HPLC on IAM (immobilized artificial membrane) column, retention factor; format: physicochemical; conditions: logarithm of retention factor; IAM.PC.DD.2 column; phosphate buffer pH 7.4:acetonitrile 80:20
experimental.readout: logkIAM

Which logkIAM value belongs to CN1C(=O)C(O)N=C(c2ccccc2)c2cc(Cl)ccc21 (centres unmarked) ?
0.83

Which logkIAM value belongs to `Cn1c(=O)c2c(ncn2C)n(C)c1=O` ?
-0.75

Which logkIAM value belongs to `CC(C)c1nc(N(C)S(C)(=O)=O)nc(-c2ccc(F)cc2)c1/C=C/[C@@H](O)C[C@@H](O)CC(=O)O` ?
-0.02

Which logkIAM value belongs to `OCCN1CCN(CCC=C2c3ccccc3Sc3ccc(C(F)(F)F)cc32)CC1` ?
1.71

Which logkIAM value belongs to CCN1CCCC1CNC(=O)c1cc(S(N)(=O)=O)ccc1OC (centres unmarked) [sulpiride] ?
0.22

Which logkIAM value belongs to `COC(=O)c1ccc(O)cc1` ?
0.29

Which logkIAM value belongs to CC(C)NCC(O)COc1ccc(COCCOC(C)C)cc1 (centres unmarked) ?
0.83

Which logkIAM value belongs to `CN(C)CCCN1c2ccccc2Sc2ccc(Cl)cc21` ?
1.77

Which logkIAM value belongs to `CC[C@H]1OC(=O)[C@H](C)[C@@H](O[C@H]2C[C@@](C)(OC)[C@@H](O)[C@H](C)O2)[C@H](C)[C@@H](O[C@@H]2O[C@H](C)C[C@H](N(C)C)[C@H]2O)[C@](C)(O)C[C@@H](C)CN(C)[C@H](C)[C@@H](O)[C@]1(C)O` ?
-1.20

Which logkIAM value belongs to `CN[C@@H](C)[C@@H](O)c1ccccc1` ?
0.34

Which logkIAM value belongs to CC(C)NCC(O)c1ccc(NS(C)(=O)=O)cc1 (centres unmarked) ?
0.13

Which logkIAM value belongs to CSc1ccc2c(c1)N(CCC1CCCCN1C)c1ccccc1S2 (centres unmarked) ?
1.68

Which logkIAM value belongs to `Nc1nnc(-c2cccc(Cl)c2Cl)c(N)n1` ?
-0.15

Which logkIAM value belongs to `CN(C)C(=N)N=C(N)N` ?
-0.47

Which logkIAM value belongs to CC(CN1c2ccccc2Sc2ccccc21)N(C)C (centres unmarked) ?
1.17
